# measured-target: UniProt P06276
# protocol-details: Mixed-type inhibition of human BuChE assessed as enzyme-substrate-inhibitor complex using butyrylthiocholine iodide as substrate by Lineweaver-Burk plot analysis
metric-name: Ki (µM)
Value expressed in µM; do not type the unit.

*Q* Please give measured Ki of the following entry: COc1cc2c3cc1Oc1c(O)c(OC)cc4c1[C@H](Cc1ccc(cc1)Oc1cc(ccc1O)C[C@H]3N(C)CC2)N(C)CC4
*A* 39.7

###

# measured-target: Acetylcholinesterase (Homo sapiens)
# Sequence (P22303 whole entry): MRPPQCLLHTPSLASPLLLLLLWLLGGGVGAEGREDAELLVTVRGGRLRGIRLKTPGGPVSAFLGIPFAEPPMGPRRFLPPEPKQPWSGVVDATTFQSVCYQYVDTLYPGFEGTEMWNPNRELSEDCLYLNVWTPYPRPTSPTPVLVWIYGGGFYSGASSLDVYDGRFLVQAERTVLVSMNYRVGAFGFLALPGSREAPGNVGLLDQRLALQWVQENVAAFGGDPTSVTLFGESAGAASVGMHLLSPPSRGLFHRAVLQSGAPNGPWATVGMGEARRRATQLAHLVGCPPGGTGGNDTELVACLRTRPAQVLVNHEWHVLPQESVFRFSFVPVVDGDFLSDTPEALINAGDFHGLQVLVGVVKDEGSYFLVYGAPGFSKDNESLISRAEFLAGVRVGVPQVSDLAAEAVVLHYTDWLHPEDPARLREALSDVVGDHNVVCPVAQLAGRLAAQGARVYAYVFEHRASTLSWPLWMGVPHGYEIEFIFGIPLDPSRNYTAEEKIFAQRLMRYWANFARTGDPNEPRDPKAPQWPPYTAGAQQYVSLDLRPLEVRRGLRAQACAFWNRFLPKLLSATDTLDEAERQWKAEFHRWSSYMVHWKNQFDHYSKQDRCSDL
metric-name: IC50 (µM)
Give just the number in µM; leave the unit off.

{"molecule": "COc1cc2c(cc1O)C(Cc1ccc(O)c(Oc3cc(CC4c5cc(O)c(OC)cc5CCN4C)ccc3OC)c1)N(C)CC2 (configuration not stated)", "IC50, µM": 66}
{"molecule": "CCN(CC)Cc1cc2cc(c1O)Oc1ccc(cc1)C[C@H]1c3cc(c(OC)cc3CCN1C)Oc1c(OC)c(OC)cc3c1[C@@H](C2)N(C)CC3", "IC50, µM": 68}

*Q* Tell me its IC50 given COc1cc2c3cc1Oc1c(O)c(OC)cc4c1[C@@H](Cc1ccc(O)c(c1)Oc1ccc(cc1)C[C@@H]3N(C)CC2)N(C)CC4 as the entry.
*A* 97

###

# measured-target: Cholinesterase (Homo sapiens)
# Sequence (P06276 whole entry): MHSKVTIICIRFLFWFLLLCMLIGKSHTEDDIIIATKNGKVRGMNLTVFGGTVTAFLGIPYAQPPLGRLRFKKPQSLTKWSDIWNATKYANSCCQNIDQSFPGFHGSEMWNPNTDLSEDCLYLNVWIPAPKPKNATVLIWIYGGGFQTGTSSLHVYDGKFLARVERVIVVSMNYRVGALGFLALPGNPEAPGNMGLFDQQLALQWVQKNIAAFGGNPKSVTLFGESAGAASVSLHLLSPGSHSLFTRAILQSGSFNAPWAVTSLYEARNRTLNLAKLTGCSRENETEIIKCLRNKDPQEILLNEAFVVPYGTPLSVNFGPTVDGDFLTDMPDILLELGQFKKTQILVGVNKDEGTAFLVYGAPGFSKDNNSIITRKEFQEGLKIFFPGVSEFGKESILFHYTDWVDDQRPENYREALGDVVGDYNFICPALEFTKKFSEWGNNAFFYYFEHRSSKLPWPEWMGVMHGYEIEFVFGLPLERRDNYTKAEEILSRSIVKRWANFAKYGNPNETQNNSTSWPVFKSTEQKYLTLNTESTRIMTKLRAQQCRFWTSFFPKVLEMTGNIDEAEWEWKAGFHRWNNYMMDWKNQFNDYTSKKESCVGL
# protocol-details: Mixed-type inhibition of human BuChE assessed as enzyme-inhibitor complex using butyrylthiocholine iodide as substrate by Lineweaver-Burk plot analysis
metric-name: pKi
Scale note: pKi = -log10(concentration in M).

*Q* Quick one: give measured pKi for COc1cc2c3cc1Oc1c(O)c(OC)cc4c1[C@H](Cc1ccc(cc1)Oc1cc(ccc1O)C[C@H]3N(C)CC2)N(C)CC4
*A* 5.19
